# protocolNotes: human liver microsomal stability assay
# Assay type: in vitro ADME
# experimentalSetup: human liver microsomes, 30-minute incubation, 1 μM
# Method: Working stocks were initially diluted to a concentration of 40 μM in 0.1 M potassium phosphate buffer before addition to the reaction vials. Pooled mouse (CD-1, male) or human (50 donors) liver microsomes were utilized at a final concentration of 0.5 mg/mL. Duplicate wells were used for each time point (0 and 30 minutes). Reactions were carried out at 37°C in a shaker, and the final concentration of DMSO was kept constant at 0.01%. […]

[
  {
    "compound": "C1=C/COCc2cc(ccc2OCCN2CCCC2)Nc2nccc(n2)-c2cccc(c2)COC/1 [pacritinib]",
    "outputUnit": "%",
    "remaining at 0.5 h, 1 μM": 76.2
  }
]
